Target: HA of A/Kawasaki/9/86 (H1N1) virus (influenza A virus)
Assay: cell-based or functional assay
Readout Name: Neutralization IC50, H1-Kaw86 (µg/mL)
Numbers only; they are read as µg/mL.

Answered examples (3):
**Q:** # lookup: Neutralization IC50, H1-Kaw86 of Antibody 15 (antibody, V domains shown) VH: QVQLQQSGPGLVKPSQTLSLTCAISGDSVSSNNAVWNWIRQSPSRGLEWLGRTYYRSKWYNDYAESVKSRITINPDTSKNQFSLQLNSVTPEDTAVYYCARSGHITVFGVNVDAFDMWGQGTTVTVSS VL: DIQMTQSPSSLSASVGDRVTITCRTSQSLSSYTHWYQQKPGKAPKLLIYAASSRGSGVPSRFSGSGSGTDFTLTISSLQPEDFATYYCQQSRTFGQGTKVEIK
**A:** 0.48

**Q:** Give its Neutralization IC50, H1-Kaw86 value. Item: Antibody 12 (antibody, V domains shown) VH: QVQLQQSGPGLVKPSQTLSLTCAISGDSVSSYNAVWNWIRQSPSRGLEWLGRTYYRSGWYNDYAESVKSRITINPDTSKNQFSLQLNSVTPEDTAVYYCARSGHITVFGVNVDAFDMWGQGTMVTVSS VL: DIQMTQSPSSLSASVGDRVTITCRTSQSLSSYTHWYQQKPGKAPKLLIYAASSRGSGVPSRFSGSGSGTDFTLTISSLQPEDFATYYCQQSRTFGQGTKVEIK
**A:** 0.28

**Q:** I'd like to know its Neutralization IC50, H1-Kaw86. The binder in question is Antibody 14 (antibody, V domains shown) VH: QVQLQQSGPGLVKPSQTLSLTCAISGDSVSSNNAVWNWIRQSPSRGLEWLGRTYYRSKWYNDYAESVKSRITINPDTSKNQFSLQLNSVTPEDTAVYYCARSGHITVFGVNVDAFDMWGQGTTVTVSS VL: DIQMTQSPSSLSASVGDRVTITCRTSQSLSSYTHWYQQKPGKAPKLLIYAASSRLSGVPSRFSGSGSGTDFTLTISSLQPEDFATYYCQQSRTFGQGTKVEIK
**A:** 0.35

Continuing:
**Q:** Returns the measured Neutralization IC50, H1-Kaw86 for the input binder. Input: Antibody 11 (antibody, V domains shown) VH: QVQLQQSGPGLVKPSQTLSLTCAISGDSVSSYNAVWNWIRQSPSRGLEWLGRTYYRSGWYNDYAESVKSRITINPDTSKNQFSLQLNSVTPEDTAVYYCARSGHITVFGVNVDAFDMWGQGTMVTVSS VL: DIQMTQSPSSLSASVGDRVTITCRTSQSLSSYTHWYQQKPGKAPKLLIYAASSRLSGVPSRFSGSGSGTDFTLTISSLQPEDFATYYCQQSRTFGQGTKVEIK
**A:** 0.53

**Q:** Give its Neutralization IC50, H1-Kaw86 value. Item: Antibody 13 (antibody, V domains shown) VH: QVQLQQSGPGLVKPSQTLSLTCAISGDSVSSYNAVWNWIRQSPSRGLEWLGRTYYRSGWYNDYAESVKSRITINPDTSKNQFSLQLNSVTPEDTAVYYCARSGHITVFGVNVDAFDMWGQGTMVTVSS VL: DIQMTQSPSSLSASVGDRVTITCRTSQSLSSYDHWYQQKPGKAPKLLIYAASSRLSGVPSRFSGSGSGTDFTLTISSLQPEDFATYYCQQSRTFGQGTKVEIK
**A:** 0.41
